What log10 IC50 was measured for each of the following?
# assay.target: human jejunal NK2 receptor (Homo sapiens)
# Construct: expressed in transfected cells; host or cells: HSKR-1 cells (mouse 3T3 fibroblasts)
# Sequence (P21452 whole entry): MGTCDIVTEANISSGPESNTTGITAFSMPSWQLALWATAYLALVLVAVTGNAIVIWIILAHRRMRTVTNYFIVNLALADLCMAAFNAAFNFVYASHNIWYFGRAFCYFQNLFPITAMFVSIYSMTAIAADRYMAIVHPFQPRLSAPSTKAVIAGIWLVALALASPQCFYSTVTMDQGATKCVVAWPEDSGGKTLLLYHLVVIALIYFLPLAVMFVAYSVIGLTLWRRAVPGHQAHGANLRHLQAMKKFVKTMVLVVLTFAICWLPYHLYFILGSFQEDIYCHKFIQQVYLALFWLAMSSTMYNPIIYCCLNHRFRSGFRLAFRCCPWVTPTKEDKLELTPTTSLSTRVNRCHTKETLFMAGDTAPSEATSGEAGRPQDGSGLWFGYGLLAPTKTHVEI
# procedure.summary: Antagonism of iodinated tachykinin binding to NK2 receptor (125iodohistidyl-1-neurokinin A, HSKR-1 cell membranes)
# reported.conditions: HSKR-1 cells (mouse 3T3 fibroblasts expressing human jejunal NK2 receptor); mean of several experiments; read-out: NK-2 IC50
Structures can show the parent of a compound that is named as a salt.
Lab note - IC50 converted to log10 from values in nM.

Illustrative cases are given below, each with its answer.
{"columns": ["molecule", "assay.target", "value.kind", "endpoint.result"],
 "data": [
  ["NC(=O)C1(c2ccccc2)CCN(CCC2(c3ccc4ccccc4c3)CC(=O)N(Cc3ccccc3)C2)CC1 (racemic)", "human jejunal NK2 receptor (Homo sapiens)", "log10 IC50", 2.25],
  ["COc1cccc(OC)c1C(=O)N1CCC(CCN2CCC(C(N)=O)(c3ccccc3)CC2)(c2ccc(Cl)c(Cl)c2)C1 (stereo not drawn) [Example 5]", "human jejunal NK2 receptor (Homo sapiens)", "log10 IC50", 1.61],
  ["COc1ccccc1C(=O)N1CCC(CCN2CCC(C(N)=O)(c3ccccc3)CC2)(c2ccc(Cl)c(Cl)c2)C1 (stereo not drawn)", "human jejunal NK2 receptor (Homo sapiens)", "log10 IC50", 1.15],
  ["COc1ccc(C2(CCN3CCC(C(N)=O)(c4ccccc4)CC3)CCN(C(=O)c3cc(OC)c(OC)c(OC)c3)C2)cc1OC (stereo not drawn)", "human jejunal NK2 receptor (Homo sapiens)", "log10 IC50", 3.43],
  ["COC(=O)[C@@H](NC(=O)C1(c2ccccc2)CCN(CCC2(c3ccc(Cl)c(Cl)c3)CCN(C(=O)c3ccccc3)C2)CC1)[C@@H](C)O (stereo partly drawn)", "human jejunal NK2 receptor (Homo sapiens)", "log10 IC50", 1.00],
  ["COc1cccc(OC)c1C(=O)N1CCC(CCN2CCC3(CC2)C(=O)NCN3c2ccccc2)(c2ccc(Cl)c(Cl)c2)C1 (stereo not drawn)", "human jejunal NK2 receptor (Homo sapiens)", "log10 IC50", 2.07],
  ["NC(=O)C1(c2ccccc2)CCN(CCC2(c3ccc(Cl)c(Cl)c3)CC(=O)N(Cc3ccccc3)C2)CC1 (stereo not drawn)", "human jejunal NK2 receptor (Homo sapiens)", "log10 IC50", 2.10],
  ["COc1ccc(C(=O)N2CCC(CCN3CCC(C(N)=O)(c4ccccc4)CC3)(c3ccc(Cl)c(Cl)c3)C2)c(OC)c1 (stereo not drawn)", "human jejunal NK2 receptor (Homo sapiens)", "log10 IC50", 1.53]
]}

# evaluate next
Per the record, COc1cccc(OC)c1C(=O)N1CCC(CCN2CCC(C(N)=O)(c3ccccc3)CC2)(c2ccc(Cl)c(Cl)c2)C1 (racemic) [Example 5A, hydrochloride] has log10 IC50 of 1.60
